// values below are IC50; system is PIM1 (Homo sapiens, UniProt P11309)
Sequence (P11309 whole entry, species assumed): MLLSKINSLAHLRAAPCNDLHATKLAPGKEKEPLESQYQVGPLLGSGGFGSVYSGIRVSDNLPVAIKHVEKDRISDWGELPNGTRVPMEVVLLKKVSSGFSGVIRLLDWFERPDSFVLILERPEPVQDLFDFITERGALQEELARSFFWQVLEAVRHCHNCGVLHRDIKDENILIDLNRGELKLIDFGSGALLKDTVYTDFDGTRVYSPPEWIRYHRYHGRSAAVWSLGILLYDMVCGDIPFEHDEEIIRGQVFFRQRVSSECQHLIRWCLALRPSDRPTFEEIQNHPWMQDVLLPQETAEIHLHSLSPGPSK
Please give the number followed by its unit.

1. O=C(O[C@@H]1Cc2c(O)cc(O)cc2O[C@H]1c1cc(O)c(O)c(O)c1)c1c(F)c(O)c(O)c(O)c1F | 722 nM
2. COc1cc(C(=O)O[C@@H]2Cc3c(O)cc(O)cc3O[C@H]2c2cc(O)c(O)c(O)c2)c(F)c(O)c1O | 87 nM

Proceed to the following item.
Query: Could you share what IC50 was measured for O=C(O[C@@H]1Cc2c(O)cc(O)cc2O[C@@H]1c1cc(O)c(O)c(O)c1)c1cc(O)c(O)c(O)c1 [EGCG, Epigallocatechin gallate, reference compound] , tested on PIM1 (Homo sapiens, UniProt P11309)?
Reply: 1360 nM

These data points were gathered from paper PMC11546061.
